Reference source: paper PMC8134453

STUDY TARGET: Jack bean (JB) urease (Canavalia ensiformis)
Construct: purchased Sigma-Aldrich (USA)
Sequence (P07374 whole entry, looked up): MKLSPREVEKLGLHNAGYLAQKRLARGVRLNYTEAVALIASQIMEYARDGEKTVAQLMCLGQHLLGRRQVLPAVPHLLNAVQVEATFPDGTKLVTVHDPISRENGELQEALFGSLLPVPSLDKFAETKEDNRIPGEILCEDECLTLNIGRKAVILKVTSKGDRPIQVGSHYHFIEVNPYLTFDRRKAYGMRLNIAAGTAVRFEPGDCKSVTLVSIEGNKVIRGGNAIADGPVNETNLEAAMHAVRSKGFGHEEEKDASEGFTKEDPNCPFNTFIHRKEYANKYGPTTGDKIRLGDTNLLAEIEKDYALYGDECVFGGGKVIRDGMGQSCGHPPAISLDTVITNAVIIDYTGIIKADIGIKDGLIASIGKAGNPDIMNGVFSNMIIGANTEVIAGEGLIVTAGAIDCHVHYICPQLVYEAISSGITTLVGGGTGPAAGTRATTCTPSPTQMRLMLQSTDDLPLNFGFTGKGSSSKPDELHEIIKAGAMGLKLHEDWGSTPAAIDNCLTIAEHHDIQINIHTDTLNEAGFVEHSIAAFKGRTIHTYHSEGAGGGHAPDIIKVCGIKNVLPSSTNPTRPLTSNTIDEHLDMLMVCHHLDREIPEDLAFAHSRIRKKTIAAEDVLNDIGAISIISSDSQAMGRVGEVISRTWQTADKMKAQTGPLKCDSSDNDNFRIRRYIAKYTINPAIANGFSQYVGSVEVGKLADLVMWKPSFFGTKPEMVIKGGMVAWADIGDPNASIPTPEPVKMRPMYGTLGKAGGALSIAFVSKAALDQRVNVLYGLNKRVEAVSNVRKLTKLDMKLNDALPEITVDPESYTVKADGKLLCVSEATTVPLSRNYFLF
TEST DESCRIPTION: Urease inhibition, modified Berthelot spectrophotometric method
Type: biochemical
TEST CONTEXT: Jack bean urease; mean ± standard error of the mean, at least three experiments; read-out: IC50 against urease
Examples of compounds with documented IC50 follow.
Reply numerically in µM, unit not repeated.

Below: 3 compounds and their reported IC50.
// IC50 lookup, compound = CN1C(=O)C(=CN/N=C/c2cccc(Oc3ccccc3)c2)C(=O)N(C)C1=O , result: 2.85

Lab note: measured IC50 of COc1cc(/C=N/NC=C2C(=O)N(C)C(=O)N(C)C2=O)cc(OC)c1OC was 2.53

Item: CN1C(=O)C(=CN/N=C/c2cccs2)C(=O)N(C)C1=O | IC50: 0.86

As a next step, examine the compound that follows.
The recorded IC50 for CN1C(=O)C(=CN/N=C/c2cc([N+](=O)[O-])ccc2Cl)C(=O)N(C)C1=O is 3.94
